These data points were gathered from ChEMBL document CHEMBL4715724.

system: Panel colon (Carcinoma cell lines); experiment: cells; type: functional; settings: Homo sapiens, time 48 hrs, read-out: LC50 (the source's name)
Description: Growth inhibition of human Panel colon (Carcinoma cell lines) incubated for 48 hrs by sulforhodamine B assay
Reported Endpoint: CC50 (µM)
Record the value in µM, omitting the unit from your answer.

Smiles Str	Tgt	Reported Endpoint	Reported Measurement
CN1CCN(CCCOc2cccc3nc(Nc4ccc(Cl)c(C(F)(F)F)c4)ccc23)CC1	Panel colon (Carcinoma cell lines)	CC50	6.27
CN1CCN(CCCOc2cccc3nc(Nc4cc(Cl)cc(Cl)c4)ccc23)CC1	Panel colon (Carcinoma cell lines)	CC50	6.1
CN1CCN(CCCOc2cccc3nc(Nc4ccc(F)c(F)c4)ccc23)CC1	Panel colon (Carcinoma cell lines)	CC50	12.2
CN1CCN(CCCOc2cccc3nc(Nc4ccc(Cl)c(F)c4)ccc23)CC1	Panel colon (Carcinoma cell lines)	CC50	6.21

Let us examine a further case.
Input line: Check the records and state CC50 for `CN1CCN(CCCOc2cccc3nc(Nc4cccc(Cl)c4)ccc23)CC1`
Output line: 5.87

---

experiment: Cytotoxicity against human HFF-1 cells assessed as cell growth inhibition by MTT assay; type: cell-based
Reported Endpoint: GI50

Here's what some known entries look like.
Smiles Str	GI50
CN1CCN(CCCOc2cccc3nc(Nc4ccc(Cl)c(C(F)(F)F)c4)ccc23)CC1	> 10 µM
CN1CCN(CCCOc2cccc3nc(Nc4cc(Cl)cc(Cl)c4)ccc23)CC1	> 10 µM

Input line: Check the records and state GI50 for `CN1CCN(CCCOc2cccc3nc(Nc4cccc(Cl)c4)ccc23)CC1`
Output line: > 10 µM

---

Below, each of the compounds is paired with its reported GI50 value.
tested on: UO-31; assay: cells; type: functional; settings: Homo sapiens, time 48 hrs
Description: Growth inhibition of human UO-31 cells incubated for 48 hrs by sulforhodamine B assay
Record the value in nM, omitting the unit from your answer.

Smiles Str	Reported Endpoint	Reported Measurement
Fc1cc(Nc2ccc3c(OCCCN4CCOCC4)cccc3n2)ccc1Cl	GI50	1650
CN1CCN(CCCOc2cccc3nc(Nc4ccc(F)c(F)c4)ccc23)CC1	GI50	4340
FC(F)(F)c1cc(Nc2ccc3c(OCCCN4CCOCC4)cccc3n2)ccc1Cl	GI50	1630

Input line: Check the records and state GI50 for `Clc1cc(Cl)cc(Nc2ccc3c(OCCCN4CCOCC4)cccc3n2)c1`
Output line: 1510

Input line: Check the records and state GI50 for `CN1CCN(CCCOc2cccc3nc(Nc4cc(Cl)cc(Cl)c4)ccc23)CC1`
Output line: 1490

---

tested on: TK-10; test: cells; assay type: functional; details: Homo sapiens, time 48 hrs
Description: Growth inhibition of human TK-10 cells incubated for 48 hrs by sulforhodamine B assay
Reported Endpoint: GI50 (µM)
Record the value in µM, omitting the unit from your answer.

Here's what some known entries look like.
Smiles Str	Tgt	Reported Measurement
CN1CCN(CCCOc2cccc3nc(Nc4cccc(Cl)c4)ccc23)CC1	TK-10	1.67
CC(C)c1ccc(Nc2ccc3c(OCCCN4CCN(C)CC4)cccc3n2)cc1	TK-10	16.5

Input line: Check the records and state GI50 for `CN1CCN(CCCOc2cccc3nc(Nc4cc(Cl)cc(Cl)c4)ccc23)CC1`
Output line: 1.74

Input line: Check the records and state GI50 for `FC(F)(F)c1cc(Nc2ccc3c(OCCCN4CCOCC4)cccc3n2)ccc1Cl`
Output line: 3.49

Input line: Check the records and state GI50 for `CN1CCN(CCCOc2cccc3nc(Nc4ccc(F)c(F)c4)ccc23)CC1`
Output line: 2.63

---

Below, each of the molecules is paired with its reported GI50 value.
test system: UO-31; assay: cells; type: functional; conditions: Homo sapiens, time 48 hrs
Record the value in nM, omitting the unit from your answer.

Here's what some known entries look like.
Smiles Str	Tgt	Reported Measurement
CN1CCN(CCCOc2cccc3nc(Nc4ccc(Cl)c(F)c4)ccc23)CC1	UO-31	1570
CC(C)c1ccc(Nc2ccc3c(OCCCN4CCN(C)CC4)cccc3n2)cc1	UO-31	12900
CN1CCN(CCCOc2cccc3nc(Nc4ccc(Cl)c(C(F)(F)F)c4)ccc23)CC1	UO-31	1460

Let us examine a further case.
Input line: Check the records and state GI50 for `CN1CCN(CCCOc2cccc3nc(Nc4cccc(Cl)c4)ccc23)CC1`
Output line: 1840

---

test system: PC-3; test: cells; assay type: functional; settings: Homo sapiens, time 48 hrs
Description: Growth inhibition of human PC-3 cells incubated for 48 hrs by sulforhodamine B assay
Reported Endpoint: GI50 (nM)
Record the value in nM, omitting the unit from your answer.

Smiles Str	GI50 / nM
CC(C)c1ccc(Nc2ccc3c(OCCCN4CCN(C)CC4)cccc3n2)cc1	12900
CN1CCN(CCCOc2cccc3nc(Nc4ccc(Cl)c(C(F)(F)F)c4)ccc23)CC1	1570
FC(F)(F)c1cc(Nc2ccc3c(OCCCN4CCOCC4)cccc3n2)ccc1Cl	2260
CN1CCN(CCCOc2cccc3nc(Nc4ccc(F)c(F)c4)ccc23)CC1	3830

Let us examine a further case.
Input line: Check the records and state GI50 for `CN1CCN(CCCOc2cccc3nc(Nc4cc(Cl)cc(Cl)c4)ccc23)CC1`
Output line: 1760

---

assay: Cytotoxicity against human HFF-1 cells assessed as cell growth inhibition at 0.1 uM by MTT assay relative to control; format: cell-based; settings: read-out: GI
Below, each of the compounds is paired with its reported inhibition at 0.1 µM value.
Record the value in %, omitting the unit from your answer.

Input line: Check the records and state inhibition at 0.1 µM for `CN1CCN(CCCOc2cccc3nc(Nc4cccc(Cl)c4)ccc23)CC1`
Output line: 5.4

Input line: Check the records and state inhibition at 0.1 µM for `CN1CCN(CCCOc2cccc3nc(Nc4ccc(Cl)c(C(F)(F)F)c4)ccc23)CC1`
Output line: 6.07

Input line: Check the records and state inhibition at 0.1 µM for `CN1CCN(CCCOc2cccc3nc(Nc4cc(Cl)cc(Cl)c4)ccc23)CC1`
Output line: 12.5

---

tested on: IGROV-1; assay: cells; assay type: functional; settings: Homo sapiens, time 48 hrs
Description: Growth inhibition of human IGROV-1 cells incubated for 48 hrs by sulforhodamine B assay
Reported Endpoint: GI50 (nM)
Record the value in nM, omitting the unit from your answer.

Here's what some known entries look like.
Smiles Str	Reported Endpoint	Reported Measurement
CN1CCN(CCCOc2cccc3nc(Nc4ccc(Cl)c(F)c4)ccc23)CC1	GI50	1950
CN1CCN(CCCOc2cccc3nc(Nc4cc(Cl)cc(Cl)c4)ccc23)CC1	GI50	1680
CN1CCN(CCCOc2cccc3nc(Nc4ccc(Cl)c(C(F)(F)F)c4)ccc23)CC1	GI50	1850

Input line: Check the records and state GI50 for `FC(F)(F)c1cc(Nc2ccc3c(OCCCN4CCOCC4)cccc3n2)ccc1Cl`
Output line: 3960

---

tested on: Panel colon (Carcinoma cell lines); assay: cells; format: functional; conditions: Homo sapiens, time 48 hrs
Below, each of the compounds is paired with its reported GI50 value.
Record the value in nM, omitting the unit from your answer.

Here's what some known entries look like.
Smiles Str	Reported Measurement
CN1CCN(CCCOc2cccc3nc(Nc4ccc(Cl)c(F)c4)ccc23)CC1	1620
Clc1cc(Cl)cc(Nc2ccc3c(OCCCN4CCOCC4)cccc3n2)c1	1830

Let us examine a further case.
Input line: Look up Panel colon (Carcinoma cell lines) data: GI50 of `CN1CCN(CCCOc2cccc3nc(Nc4cc(Cl)cc(Cl)c4)ccc23)CC1` , then report it.
Output line: 1680

---

Below, each of the molecules is paired with its reported GI50 value.
tested on: TK-10; assay: cells; type: functional; settings: Homo sapiens, time 48 hrs
Record the value in nM, omitting the unit from your answer.

Here's what some known entries look like.
Smiles Str	Reported Measurement
CN1CCN(CCCOc2cccc3nc(Nc4ccc(Cl)c(C(F)(F)F)c4)ccc23)CC1	1800
Clc1cc(Cl)cc(Nc2ccc3c(OCCCN4CCOCC4)cccc3n2)c1	2380
Fc1cc(Nc2ccc3c(OCCCN4CCOCC4)cccc3n2)ccc1Cl	2010

Input line: Look up TK-10 data: GI50 of `CN1CCN(CCCOc2cccc3nc(Nc4ccc(Cl)c(F)c4)ccc23)CC1` , then report it.
Output line: 1810
